target: Insulin receptor (Homo sapiens) (UniProt P06213); settings: at 10 µM
Sequence (P06213 28-758 limits assumed): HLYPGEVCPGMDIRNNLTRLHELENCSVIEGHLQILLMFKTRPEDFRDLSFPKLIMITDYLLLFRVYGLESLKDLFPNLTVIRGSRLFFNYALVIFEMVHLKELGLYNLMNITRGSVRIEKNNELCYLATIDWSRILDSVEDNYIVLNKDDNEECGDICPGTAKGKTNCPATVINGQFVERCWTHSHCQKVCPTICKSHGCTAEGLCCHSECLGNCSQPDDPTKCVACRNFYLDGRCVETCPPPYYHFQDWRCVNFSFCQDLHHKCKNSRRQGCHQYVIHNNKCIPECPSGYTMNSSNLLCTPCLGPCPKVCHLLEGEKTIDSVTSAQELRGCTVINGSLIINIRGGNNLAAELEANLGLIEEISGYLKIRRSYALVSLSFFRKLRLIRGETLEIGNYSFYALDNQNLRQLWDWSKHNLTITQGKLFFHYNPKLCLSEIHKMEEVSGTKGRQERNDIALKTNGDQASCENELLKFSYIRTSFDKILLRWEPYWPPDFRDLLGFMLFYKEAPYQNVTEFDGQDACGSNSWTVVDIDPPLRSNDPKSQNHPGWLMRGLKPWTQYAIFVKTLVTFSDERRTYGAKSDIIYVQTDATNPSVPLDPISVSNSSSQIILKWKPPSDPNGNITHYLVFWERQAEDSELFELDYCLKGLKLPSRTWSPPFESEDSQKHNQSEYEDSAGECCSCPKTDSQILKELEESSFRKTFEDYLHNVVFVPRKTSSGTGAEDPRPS
Sequence (P06213 763-1382 limits assumed): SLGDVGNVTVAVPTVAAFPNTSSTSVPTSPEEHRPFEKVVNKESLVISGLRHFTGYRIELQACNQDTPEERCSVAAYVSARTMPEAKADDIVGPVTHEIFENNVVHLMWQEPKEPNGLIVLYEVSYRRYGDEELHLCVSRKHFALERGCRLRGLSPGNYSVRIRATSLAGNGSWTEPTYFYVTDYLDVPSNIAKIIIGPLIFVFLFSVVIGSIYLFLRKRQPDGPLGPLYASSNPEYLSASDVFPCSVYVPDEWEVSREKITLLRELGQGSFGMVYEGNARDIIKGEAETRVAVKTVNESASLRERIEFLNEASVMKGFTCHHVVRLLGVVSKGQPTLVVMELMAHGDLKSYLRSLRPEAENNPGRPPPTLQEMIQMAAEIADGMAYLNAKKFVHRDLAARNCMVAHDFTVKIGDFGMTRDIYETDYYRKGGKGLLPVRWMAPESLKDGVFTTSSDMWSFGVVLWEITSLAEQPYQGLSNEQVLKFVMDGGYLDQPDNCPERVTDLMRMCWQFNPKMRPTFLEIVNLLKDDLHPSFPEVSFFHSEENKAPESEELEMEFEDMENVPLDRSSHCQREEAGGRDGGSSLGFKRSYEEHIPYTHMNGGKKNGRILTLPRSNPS
MEASUREMENT_KIND: residual activity (%)

>>> test_result("CC(C)[C@H](CO)Nc1nc(Nc2cccc(Cl)c2)c2ncn(C(C)C)c2n1")
4
>>> test_result("O=C1NC(=O)c2c1c1c3ccccc3n3c1c1c2c2ccccc2n1C1CCC3O1")
88
>>> test_result("O=C1c2ccccc2-c2nc3nnnn3nc21")
109
>>> test_result("O=c1[nH]c2ccccc2n1C1CCN(Cc2ccc(-c3nc4cc5[nH]cnc5cc4nc3-c3ccccc3)cc2)CC1")
98
>>> test_result("O=C1Nc2ccc3ncsc3c2/C1=C/c1c[nH]cn1")
36
>>> test_result("COC(=O)[C@@]1(O)C[C@H]2O[C@]1(C)n1c3ccccc3c3c4c(c5c6ccccc6n2c5c31)C(=O)NC4")
0
